Kindly find below pKi information for Carbonic anhydrase 9 (Homo sapiens) taken from the literature.
Please note pKi is a logarithmic value: minus log10 of concentration in mol/L. Answer with that number alone.

Prompt: pKi lookup needed for NS(=O)(=O)c1ccc(/N=N/c2ccc(O)cc2)cc1 , thanks.
Completion: 8.19

Prompt: Okay, and NS(=O)(=O)c1cccc2cccnc12 ?
Completion: 7.49

Prompt: // next record CC1(C)OB(c2ccc(NC(=S)Nc3ccc(S(N)(=O)=O)cc3)cc2)OC1(C)C
Completion: 7.10

Next:
Prompt: Which pKi value is on record for Nc1ccc2c(c1)C=CS(=O)(=O)O2 ?
Completion: 7.34

Prompt: Quick one: S=C(S)NCCCn1ccnc1
Completion: 8.37

Prompt: Would you kindly repeat that for Cc1cccc(-c2cc(=O)oc3cc(O)ccc23)c1 ?
Completion: 7.77

Prompt: Check Nc1c(Cl)cc(S(N)(=O)=O)cc1I too.
Completion: 7.20

Prompt: Can you handle COc1cc(/C=C/C(=O)OCCCCO[N+](=O)[O-])ccc1OC(=O)c1ccc(S(N)(=O)=O)cc1 next?
Completion: 7.96

Prompt: # repeat for NS(=O)(=O)c1ccc(/N=c2\scc(-c3ccc(Br)cc3)n2-c2ccccc2)cc1
Completion: 5.61

Prompt: Repeat for the following molecule: NS(=O)(=O)c1ccc(-c2nnc3sc(-c4ccc(F)cc4)nn23)cc1
Completion: 7.19

Prompt: Repeat with O=C(/C=C(\O)C(=O)O)/C=C/c1ccc(NC(=O)c2cccc3ccccc23)cc1
Completion: 7.89

Prompt: Likewise for NS(=O)(=O)c1ccc(OCc2cn(-c3ccc(O)cc3)nn2)cc1 ?
Completion: 7.73

Prompt: Same for NS(=O)(=O)c1cccc(NC(=O)Nc2cccc([N+](=O)[O-])c2)c1
Completion: 6.81

Prompt: Ok, now COc1ccc2c(c1)CCN(S(N)(=O)=O)C2c1ccc(N)cc1 (racemic)
Completion: 7.92

Prompt: Then what about the molecule NS(=O)(=O)c1ccc(C(=O)NNC(=O)Nc2ccc(Br)cc2)cc1 ?
Completion: 8.07

Prompt: Query CC1=CC(=O)N(Cc2ccc(Cl)cc2)S(=O)(=O)O1 next
Completion: 6.62
